Let's look at some molecules and their measured Inhibition.
- Test system: Staphylococcus aureus
- test_parameters: Concentration 32 ug.mL-1; ASSAY_TEST Inhibition of Bacterial Growth; detection method Absorption (OD600); MEDIA CAMHB; plate type 384well; NBS; CORNING #3640; time 18 hr
- Description: Antibacterial activity against Staphylococcus aureus MRSA ATCC 43300 (CO-ADD:GP_020); MIC in CAMBH media, using NBS plates, by OD(600)
Potency and affinity values are given separately.

compound_structure: O=C(NN=C[C@H]1[C@@H]2CCO[C@@H]2C[C@@H]1O)c1ccncc1
unit_label: %
Inhibition: 13.82
//
compound_structure: O=C(NN=CC[C@@H]1[C@@H](/C=C/[C@@H](O)CCc2ccccc2)[C@H](O)C[C@@H]1O)c1ccncc1
unit_label: %
Inhibition: 16.65
//
compound_structure: O=C(N/N=C1/C[C@@H]2[C@H](COC(c3ccccc3)(c3ccccc3)c3ccccc3)C[C@H](COC(c3ccccc3)(c3ccccc3)c3ccccc3)[C@@H]2C1)c1ccncc1
unit_label: %
Inhibition: -0.42
//
compound_structure: O=C(N/N=C1/C[C@@H]2[C@H](C1)[C@H](OC(=O)c1ccccc1)C[C@@H]2OC(=O)c1ccccc1)c1ccncc1
unit_label: %
Inhibition: 26.15
//
compound_structure: O=C(N/N=C/C[C@@H]1[C@@H](/C=C/[C@@H](O)COc2ccccc2)[C@H](O)C[C@@H]1O)c1ccncc1
unit_label: %
Inhibition: 16.08
